Study system: T1, cynoSIRPα (XP_015313155), Extracellular Domain + His-Tag (cynomolgus monkey)
T1 construct: also called CySIRPα XP_015313155; not shown: His-Tag
T1 chain: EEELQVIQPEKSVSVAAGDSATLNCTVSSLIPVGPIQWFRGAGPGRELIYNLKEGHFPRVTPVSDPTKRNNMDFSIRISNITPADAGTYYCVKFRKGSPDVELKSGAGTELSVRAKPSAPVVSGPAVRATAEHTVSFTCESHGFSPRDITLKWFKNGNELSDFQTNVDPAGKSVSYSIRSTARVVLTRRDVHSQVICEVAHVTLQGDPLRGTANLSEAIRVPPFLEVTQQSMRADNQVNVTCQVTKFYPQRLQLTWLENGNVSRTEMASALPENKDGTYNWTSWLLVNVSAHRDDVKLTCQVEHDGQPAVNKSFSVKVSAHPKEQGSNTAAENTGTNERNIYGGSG
Experimental details: SPR, antibody captured on Protein A/G, ECD-His analyte, 1:1 fit
Measurement name: kon (M⁻¹ s⁻¹)
Expressed in M⁻¹ s⁻¹, but write only the number.

Answered examples (4):
Antibody E8 (antibody, human IgG1, kappa, L234A L235A, V domains shown) VH: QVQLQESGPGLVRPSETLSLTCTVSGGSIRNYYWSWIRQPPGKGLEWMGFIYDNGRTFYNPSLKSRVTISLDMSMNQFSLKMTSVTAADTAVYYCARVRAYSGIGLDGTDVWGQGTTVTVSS VL: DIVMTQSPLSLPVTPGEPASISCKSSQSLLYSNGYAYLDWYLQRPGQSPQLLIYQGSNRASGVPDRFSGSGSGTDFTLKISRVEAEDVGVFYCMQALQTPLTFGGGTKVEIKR :: 207000
Antibody E7 (antibody, human IgG1, kappa, L234A L235A, V domains shown) VH: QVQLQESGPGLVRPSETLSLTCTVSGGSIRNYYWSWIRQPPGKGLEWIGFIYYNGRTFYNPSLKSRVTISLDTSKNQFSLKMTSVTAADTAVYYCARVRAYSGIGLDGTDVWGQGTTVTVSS VL: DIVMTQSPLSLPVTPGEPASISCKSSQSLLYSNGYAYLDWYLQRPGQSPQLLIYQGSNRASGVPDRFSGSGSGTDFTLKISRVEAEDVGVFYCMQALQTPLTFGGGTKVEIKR :: 159000
Antibody E4 (antibody, human IgG1, kappa, L234A L235A, V domains shown) VH: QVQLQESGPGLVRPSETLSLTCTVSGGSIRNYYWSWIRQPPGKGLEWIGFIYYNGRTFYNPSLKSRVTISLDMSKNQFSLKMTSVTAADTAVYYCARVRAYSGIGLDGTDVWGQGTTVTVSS VL: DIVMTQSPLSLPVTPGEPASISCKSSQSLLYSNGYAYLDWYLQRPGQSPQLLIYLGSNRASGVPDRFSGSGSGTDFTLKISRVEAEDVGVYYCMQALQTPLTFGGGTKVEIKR :: 228000
Antibody E6 (antibody, human IgG1, kappa, L234A L235A, V domains shown) VH: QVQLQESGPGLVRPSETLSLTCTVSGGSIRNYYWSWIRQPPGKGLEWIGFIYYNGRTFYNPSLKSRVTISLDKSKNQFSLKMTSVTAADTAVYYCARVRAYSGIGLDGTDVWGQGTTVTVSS VL: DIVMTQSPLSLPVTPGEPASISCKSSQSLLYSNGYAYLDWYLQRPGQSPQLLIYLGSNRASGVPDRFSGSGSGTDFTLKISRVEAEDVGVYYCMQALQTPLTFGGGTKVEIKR :: 175000

Shift focus to the following entry.
**Q:** Consider the binder shown here: Antibody E20 (antibody, human IgG1, kappa, L234A L235A, V domains shown) VH: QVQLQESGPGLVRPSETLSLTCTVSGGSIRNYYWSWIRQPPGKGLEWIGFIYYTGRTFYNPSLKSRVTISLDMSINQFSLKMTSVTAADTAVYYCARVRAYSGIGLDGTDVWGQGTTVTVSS VL: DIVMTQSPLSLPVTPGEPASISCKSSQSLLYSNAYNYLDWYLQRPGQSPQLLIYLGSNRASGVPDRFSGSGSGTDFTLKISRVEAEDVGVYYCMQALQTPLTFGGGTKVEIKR What is its recorded kon?
**A:** 251000
